Measured Increase rate (%) in flow in the common carotid artery by item
# protocol-summary: Test [III]: common carotid blood flow in anesthetized dogs
# Assay type: in vivo
# test-settings: anesthetized mongrel dogs, 20 μg/kg i.v.

Before answering, review these 3 worked examples.
CC(C)NCC(O)COc1ccc(OCCO[N+](=O)[O-])c(Cl)c1 (stereo not drawn) [Compound 34] = .uparw. (an increase of 30% or less)
CC(C)NCC(O)COc1ccc(CCCO[N+](=O)[O-])cc1 (stereo not drawn) [Compound 61] = .uparw. (an increase of 30% or less)
CCC(CC)NCC(O)COc1cccc(OCCCO[N+](=O)[O-])c1 (stereo not drawn) [Compound 26] = .uparw. (an increase of 30% or less)

Please indicate Increase rate (%) in flow in the common carotid artery recorded for C=CCOc1cc(OCCO[N+](=O)[O-])c(Cl)cc1OCC(O)CNC(C)C (stereo not drawn) [Compound 33]
.uparw. (an increase of 30% or less)

====

# protocol-summary: Test [I]: blood pressure in pentobarbital-anesthetized dogs, i.v.
# Type: in vivo
# test-settings: Canis lupus familiaris, iv; anesthetized adult dogs, 20 μg/kg i.v.; read-out: Reduction in blood pressure
# inhibition in vivo at 0.02 mg/kg values compiled below

The cases that follow already have their inhibition in vivo at 0.02 mg/kg on record.
CC(C)NCC(O)COc1ccc(CCCO[N+](=O)[O-])cc1 (stereo not shown) = > 50%
CC(C)NCC(O)COc1ccc(OCCO[N+](=O)[O-])c(C(N)=O)c1 (stereo not shown) = 20 to 50%
CC(C)NCC(O)COc1ccc(OCCO[N+](=O)[O-])cc1 (stereo not shown) = > 50%
C=CCOc1cc(OCCO[N+](=O)[O-])ccc1OCC(O)CNC(C)C (stereo not shown) = 20 to 50%
CC(C)NCC(O)COc1c(OCCO[N+](=O)[O-])cccc1OCCO[N+](=O)[O-] (stereo not shown) = > 50%

Name the recorded inhibition in vivo at 0.02 mg/kg of the item CC(C)NCC(O)COc1ccccc1OCCO[N+](=O)[O-] (stereo not shown) in your answer.
20 to 50%

Identify inhibition in vivo at 0.02 mg/kg associated with the molecule CC(C)NCC(O)COc1ccc(OCCCO[N+](=O)[O-])cc1 (stereo not shown)
20 to 50%

Give the reported inhibition in vivo at 0.02 mg/kg for this molecule. CC(C)NCC(O)COc1ccc(CCCCO[N+](=O)[O-])cc1 (stereo not shown)
> 50%

// Input: CC(C)NCC(O)COc1ccc(OCCO[N+](=O)[O-])cc1OCCO[N+](=O)[O-] (stereo not shown) . Output its inhibition in vivo at 0.02 mg/kg only.
> 50%

Answer with the recorded inhibition in vivo at 0.02 mg/kg of C=CCOc1cc(OCCO[N+](=O)[O-])c(Cl)cc1OCC(O)CNC(C)C (stereo not shown) only.
20 to 50%
